Measured values drawn from PubChem BioAssay AID226 for this set.

Tested on: B6C3F1 mice, intracerebral ependymoblastoma, median survival T/C
methodDescription: NCI In Vivo Anticancer Drug Screen. Data for tumor model Ependymoblastoma (intracerebral) in B6C3F1 mice
conditionsUsed: endpoint: median survival time; dose: 8.0 mg/kg/injection; schedule: Q01DX005 (ip); vehicle: saline
Inconclusive results and toxic doses are left out. Rule for the calls: active = survival T/C of 150% or more; inactive = T/C below 125% in these data.
Choose one outcome from this list and give only that: Yes = active, No = inactive

Please let me know the test result on file for O=C(O)CC(NC(=O)CP(=O)(O)O)C(=O)O (configuration not stated) . No

Please let me know the test result on file for O=c1[nH]c(=O)n([C@H]2CCCO2)cc1F . No

Please let me know the test result on file for S=P(N1CC1)(N1CC1)N1CC1 . Yes

Please let me know the test result on file for O=c1[nH]cc(F)c(=O)[nH]1 . No

Please let me know the test result on file for CCN(CC)c1ccc2cc3ccc(=[N+](CC)CC)cc-3oc2c1 . No

Please let me know the test result on file for COC1C(O)C(C)OC(OC2C(Oc3cccc4c(O)c5c(=O)oc6ccc(C)c7c(=O)oc(c34)c5c67)OC(C)C(O)C2O)C1O (configuration not stated) . No

Please let me know the test result on file for COC1OC(CO)C(O)C(NC(=O)N(C)N=O)C1O (configuration not stated) . No

Please let me know the test result on file for CN=NNc1nc[nH]c1C(N)=O . No

Please let me know the test result on file for COc1cccc2c1C(=O)c1c(O)c3c(c(O)c1C2=O)C[C@@](O)(/C(C)=N/NC(=O)c1ccccc1)C[C@@H]3OC1CC(N)C(O)C(C)O1 (some centres not stated) . No

Please let me know the test result on file for COc1ccc(C[C@H](N)C(=O)NC2C(CO)OC(n3cnc4c(N(C)C)ncnc43)C2O)cc1 (some centres not stated) . No

Please let me know the test result on file for CCC1=C(c2ccc(OC)cc2)CCC(C(=O)O)C1C (configuration not stated) . No

Please let me know the test result on file for COc1ccc2c(c1O)-c1cccc3c1[C@@H](C2)N(CCCl)CC3 . No
